Listed here: items and their measured FRET LXRα efficacy.
- study.target: LXR α LBD protein (Homo sapiens (Human), UniProt Q13133)
- assay.procedure: Human LXRα coactivator recruitment FRET assay, agonist mode
- Format: biochemical
- settings: agonist mode
measured.endpoint: FRET LXRα efficacy (%)

molecule: CC(C)[C@@H]1CN(c2cccc(S(C)(=O)=O)c2)CCN1c1ccnc(C(F)(F)F)n1
measured.endpoint: FRET LXRα efficacy
unit.abbreviation: %
result.number: 59

molecule: CS(=O)(=O)c1cccc(N2CCN(Cc3cccc(C(F)(F)F)c3)C(c3ccccc3)C2)c1 (stereo not shown)
measured.endpoint: FRET LXRα efficacy
unit.abbreviation: %
result.number: 28

molecule: CS(=O)(=O)c1cccc(N2CCN(Cc3ccc(C(F)(F)F)cc3)[C@H](c3ccccc3)C2)c1 (single isomer, unassigned)
measured.endpoint: FRET LXRα efficacy
unit.abbreviation: %
result.number: 37

molecule: C[C@]1(c2ccccc2)CN(c2cccc(S(C)(=O)=O)c2)CCN1Cc1ccc(C(F)(F)F)cc1 (single isomer, unassigned)
measured.endpoint: FRET LXRα efficacy
unit.abbreviation: %
result.number: 24

molecule: CS(=O)(=O)c1cccc(N2CCN(Cc3ccc(C(F)(F)F)c(Cl)c3)[C@H](Cc3ccccc3)C2)c1
measured.endpoint: FRET LXRα efficacy
unit.abbreviation: %
result.number: 37

molecule: CC(C)(C)OC(=O)N1CCN(c2cccc(S(C)(=O)=O)c2)C[C@H]1Cc1ccccc1
measured.endpoint: FRET LXRα efficacy
unit.abbreviation: %
result.number: 18

molecule: COC(=O)c1ccc(N2CCN(C(=O)OC(C)(C)C)C(c3ccccc3)C2)cc1S(C)(=O)=O (stereo not shown)
measured.endpoint: FRET LXRα efficacy
unit.abbreviation: %
result.number: 102

molecule: Cc1cc(CN2CCN(c3cccc(S(C)(=O)=O)c3)CC2c2ccccc2)cnc1C(F)(F)F (stereo not shown)
measured.endpoint: FRET LXRα efficacy
unit.abbreviation: %
result.number: 47

molecule: CC(C)(C)C1CN(c2ccc(F)c(S(C)(=O)=O)c2)CCN1c1nccc(C(F)(F)F)n1 (stereo not shown)
measured.endpoint: FRET LXRα efficacy
unit.abbreviation: %
result.number: 101

molecule: CS(=O)(=O)c1cc(F)cc(N2CCN(Cc3ccc(C(F)(F)F)nc3)C(c3ccccc3)C2)c1 (stereo not shown)
measured.endpoint: FRET LXRα efficacy
unit.abbreviation: %
result.number: 46

molecule: CS(=O)(=O)c1cccc(N2CCN(c3ccc(C(F)(F)F)cn3)[C@@H](c3ccccc3)C2)c1
measured.endpoint: FRET LXRα efficacy
unit.abbreviation: %
result.number: 70

molecule: NS(=O)(=O)c1cccc(N2CCN(C[C@H]3CC[C@@H](C(F)(F)F)CC3)[C@H](c3ccccc3)C2)c1 (single isomer, unassigned)
measured.endpoint: FRET LXRα efficacy
unit.abbreviation: %
result.number: 25

molecule: CS(=O)(=O)c1cc(N2CCN(Cc3ccc(C(F)(F)F)c(Cl)c3)C(c3ccccc3)C2)ccc1CO (stereo not shown)
measured.endpoint: FRET LXRα efficacy
unit.abbreviation: %
result.number: 109

molecule: CC(C)(C)OC(=O)N1CCN(c2cccc(S(C)(=O)=O)c2)CC1c1ccc(Br)cc1 (stereo not shown)
measured.endpoint: FRET LXRα efficacy
unit.abbreviation: %
result.number: 46

molecule: CC(C)(C)OC(=O)N1CCN(c2cccc(S(C)(=O)=O)c2)C[C@@H]1c1ccccc1
measured.endpoint: FRET LXRα efficacy
unit.abbreviation: %
result.number: 14

molecule: CC(C)[C@@H]1CN(c2cccc(S(C)(=O)=O)c2)CCN1c1ncc(C2CC2)cn1
measured.endpoint: FRET LXRα efficacy
unit.abbreviation: %
result.number: 60

molecule: CS(=O)(=O)c1cccc(N2CCN(Cc3ccc(C(F)(F)F)nc3)C(c3ccc(Cl)cc3)C2)c1 (stereo not shown)
measured.endpoint: FRET LXRα efficacy
unit.abbreviation: %
result.number: 49

molecule: CC(C)[C@@H]1CN(c2cccc(S(C)(=O)=O)c2)CCN1c1ncccn1
measured.endpoint: FRET LXRα efficacy
unit.abbreviation: %
result.number: 23

molecule: COC(=O)c1cnc(N2CCN(c3cccc(S(C)(=O)=O)c3)C[C@H]2C(C)C)nc1
measured.endpoint: FRET LXRα efficacy
unit.abbreviation: %
result.number: 57

molecule: CC(C)[C@@H]1CN(c2cccc(S(C)(=O)=O)c2)CCN1c1ncc(Cl)cn1
measured.endpoint: FRET LXRα efficacy
unit.abbreviation: %
result.number: 76

molecule: CS(=O)(=O)c1cccc(N2CCN(CC3CCC(F)(F)CC3)[C@@H](c3ccccc3)C2)c1
measured.endpoint: FRET LXRα efficacy
unit.abbreviation: %
result.number: 23

molecule: Cc1ccccc1[C@H]1CN(c2cccc(S(C)(=O)=O)c2)CCN1Cc1ccc(C(F)(F)F)nc1 (single isomer, unassigned)
measured.endpoint: FRET LXRα efficacy
unit.abbreviation: %
result.number: 30

molecule: CC(C)[C@@H]1CN(c2ccc(F)c(S(C)(=O)=O)c2)CCN1c1ccc(C(F)(F)F)cn1
measured.endpoint: FRET LXRα efficacy
unit.abbreviation: %
result.number: 102

molecule: CC(C)[C@@H]1CN(c2cccc(S(C)(=O)=O)c2)CCN1C(=O)OCC(C)(C)C
measured.endpoint: FRET LXRα efficacy
unit.abbreviation: %
result.number: 52

molecule: CC(C)(O)c1ccc(CN2CCN(c3cccc(S(C)(=O)=O)c3)C[C@@H]2c2ccccc2)cc1
measured.endpoint: FRET LXRα efficacy
unit.abbreviation: %
result.number: 18

molecule: CS(=O)(=O)c1cccc(N2CCN(C[C@H]3CC[C@@H](C(F)(F)F)CC3)[C@@H](c3ccc(F)cc3)C2)c1
measured.endpoint: FRET LXRα efficacy
unit.abbreviation: %
result.number: 48

molecule: CC(C)OC(=O)N1CCN(c2cccc(S(C)(=O)=O)c2)CC1c1ccccc1 (stereo not shown)
measured.endpoint: FRET LXRα efficacy
unit.abbreviation: %
result.number: 41

molecule: COC(=O)c1ccc(N2CCN(Cc3ccc(C(F)(F)F)nc3)C(c3ccccc3)C2)cc1S(C)(=O)=O (stereo not shown)
measured.endpoint: FRET LXRα efficacy
unit.abbreviation: %
result.number: 109

molecule: CS(=O)(=O)c1cccc(N2CCN(Cc3ccc(C(F)(F)F)nc3)[C@H](c3ccccc3Cl)C2)c1 (single isomer, unassigned)
measured.endpoint: FRET LXRα efficacy
unit.abbreviation: %
result.number: 47

molecule: CS(=O)(=O)c1cccc(N2CCN(Cc3ccc(C(F)(F)F)nc3)C(c3cccc(Cl)c3)C2)c1 (stereo not shown)
measured.endpoint: FRET LXRα efficacy
unit.abbreviation: %
result.number: 25

molecule: CC(C)[C@@H]1CN(c2ccc(F)c(S(C)(=O)=O)c2)CCN1C(=O)OC(C)(C)C
measured.endpoint: FRET LXRα efficacy
unit.abbreviation: %
result.number: 48

###

Quick reference for Cell LXRα efficacy among some molecules
- study.target: Gal4 DNA binding domain fused to the LBD of LXRα in HEK293 cells (Homo sapiens (Human), UniProt Q13133)
- Sequence (Q13133 209-447): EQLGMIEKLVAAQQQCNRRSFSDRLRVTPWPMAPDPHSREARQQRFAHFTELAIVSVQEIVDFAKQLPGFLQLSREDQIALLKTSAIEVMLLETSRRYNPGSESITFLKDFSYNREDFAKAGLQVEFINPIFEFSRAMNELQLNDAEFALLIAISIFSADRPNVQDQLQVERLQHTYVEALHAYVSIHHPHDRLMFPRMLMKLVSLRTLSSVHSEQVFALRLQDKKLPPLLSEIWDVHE
- assay.procedure: LXR luciferase transcriptional reporter gene assay, agonist mode, LXRα
- Type: cell-based

molecule: CC(=O)NCc1cnc(N2CCN(c3ccc(F)c(S(C)(=O)=O)c3)C[C@H]2C(C)C)nc1C(F)(F)F [54-2]
Cell LXRα efficacy: 3064 (29) %
--
molecule: CC(C)[C@H]1CC[C@H](CN2CCN(c3ccc(CO)c(S(C)(=O)=O)c3)C[C@@H]2c2ccccc2)CC1 (single isomer, unassigned) [48-77]
Cell LXRα efficacy: 789 (53) %
--
molecule: CS(=O)(=O)c1cc(N2CCN(C[C@H]3CC[C@H](C(F)(F)F)CC3)[C@@H](c3ccccc3)C2)ccc1C(N)=O (single isomer, unassigned) [17-37]
Cell LXRα efficacy: 16011 (50) %
--
molecule: CS(=O)(=O)c1cccc(N2CCN(C[C@H]3CC[C@@]4(CC3)CC4(F)F)[C@H](c3ccccc3)C2)c1 (single isomer, unassigned) [48-70]
Cell LXRα efficacy: 9091 (26) %
--
molecule: CC(C)[C@@H]1CN(c2cc(F)c(CO)c(S(C)(=O)=O)c2)CCN1c1ncc(CO)c(C(F)(F)F)n1 [Cpd No 11-6]
Cell LXRα efficacy: 216 (58) %
--
molecule: CC(C)[C@H]1CN(c2ccc(CO)c(S(C)(=O)=O)c2)CCN1Cc1ccc(C(F)(F)F)o1 [47-5]
Cell LXRα efficacy: 1187 (62) %
--
molecule: CC(C)[C@@H]1CN(c2cccc(S(C)(=O)=O)c2)CCN1c1ncc(Cl)cn1 [Cpd No 7-4]
Cell LXRα efficacy: 1219 (70) %

###

- study.target: LXR β LBD protein (Homo sapiens (Human), UniProt P55055)
- Sequence (P55055 222-460 limits assumed): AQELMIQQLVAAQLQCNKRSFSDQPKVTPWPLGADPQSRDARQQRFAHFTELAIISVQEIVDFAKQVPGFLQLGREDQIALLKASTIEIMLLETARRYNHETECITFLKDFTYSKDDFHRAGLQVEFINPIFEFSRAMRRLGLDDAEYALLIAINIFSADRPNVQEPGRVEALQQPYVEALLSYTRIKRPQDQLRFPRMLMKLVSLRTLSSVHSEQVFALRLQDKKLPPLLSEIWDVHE
- assay.procedure: biochemical
- Type: binding
- settings: Biological Test Example 1; read-out: LXRβ Binding Ki
Hi! Could you tag entries with Ki below 500 nM as true, and those at or above as false? Much appreciated.

compound: CS(=O)(=O)c1cc(N2CCN(C[C@H]3CC[C@H](C(F)(F)F)CC3)[C@@H](c3ccccc3)C2)ccc1C#N (single isomer, unassigned)
group.label: false
--
compound: CS(=O)(=O)c1cc(N2CCN(C[C@H]3CC[C@@H](C(F)(F)F)CC3)[C@H](c3ccccc3)C2)ccc1C#N (single isomer, unassigned)
group.label: false
--
compound: COCc1ccc(N2CCN(C[C@H]3CC[C@H](C(F)(F)F)CC3)[C@@H](c3ccccc3)C2)cc1S(C)(=O)=O
group.label: false
--
compound: CO[C@]1(C(F)(F)F)CC[C@H](CN2CCN(c3ccc(CO)c(S(C)(=O)=O)c3)C[C@@H]2C(C)C)CC1 (single isomer, unassigned)
group.label: true
--
compound: CS(=O)(=O)c1cccc(N2CCN(C[C@H]3C[C@@H]4[C@H](C3)C4(F)F)[C@@H](c3ccccc3)C2)c1
group.label: true
--
compound: NS(=O)(=O)c1cccc(N2CCN(CC3CCN(CC(F)(F)F)CC3)[C@H](c3ccccc3)C2)c1 (single isomer, unassigned)
group.label: false
--
compound: CC(C)[C@H]1CN(c2cccc(S(C)(=O)=O)c2)CCN1CC1CCOCC1
group.label: false
--
compound: CS(=O)(=O)c1cccc(N2CCN(CC3CCOCC3)[C@@H](c3ccccc3)C2)c1
group.label: false
--
compound: NS(=O)(=O)c1cccc(N2CCN(CC3CCN(CC(F)(F)F)CC3)[C@@H](c3ccccc3)C2)c1 (single isomer, unassigned)
group.label: true
--
compound: CS(=O)(=O)c1cccc(N2CCN(C[C@H]3CC[C@@]4(CC3)CC4(F)F)[C@@H](c3ccccc3)C2)c1 (single isomer, unassigned)
group.label: true
--
compound: CS(=O)(=O)c1cc(N2CCN(C[C@H]3CC[C@@H](C(F)(F)F)CC3)[C@@H](c3ccccc3)C2)ccc1C#N (single isomer, unassigned)
group.label: true
--
compound: CS(=O)(=O)c1cccc(N2CCN(CC3(F)CCN(CC(F)(F)F)CC3)[C@H](c3ccccc3)C2)c1 (single isomer, unassigned)
group.label: false
--
compound: CS(=O)(=O)c1cc(N2CCN(C[C@H]3CC[C@@H](C(F)(F)F)CC3)[C@@H](c3ccc(F)cc3)C2)ccc1F
group.label: true
--
compound: CO[C@H]1CC[C@H](CN2CCN(c3ccc(CO)c(S(C)(=O)=O)c3)C[C@@H]2C(C)C)CC1 (single isomer, unassigned)
group.label: false
--
compound: CS(=O)(=O)c1cccc(N2CCN(C[C@@H]3C[C@H]4CC[C@@H](C3)N4CC(F)(F)F)[C@@H](c3ccccc3)C2)c1
group.label: true
--
compound: CS(=O)(=O)c1cccc(N2CCN(C[C@@H]3C[C@@H]4[C@H](C3)C4(F)F)[C@@H](c3ccccc3)C2)c1 (single isomer, unassigned)
group.label: true
--
compound: CS(=O)(=O)c1cccc(N2CCN(C[C@@H]3CCN(CC(F)(F)F)C3)[C@@H](c3ccccc3)C2)c1 (single isomer, unassigned)
group.label: true
--
compound: CS(=O)(=O)c1cccc(N2CCN(C[C@H]3CC[C@@]4(CC3)CC4(F)F)[C@H](c3ccccc3)C2)c1 (single isomer, unassigned)
group.label: false
--
compound: CS(=O)(=O)c1cccc(N2CCN(C[C@H]3CC[C@]4(CC3)CC4(F)F)[C@@H](c3ccccc3)C2)c1 (single isomer, unassigned)
group.label: true
--
compound: CS(=O)(=O)c1cccc(N2CCN(C[C@H]3CC[C@H](C(F)(F)F)CC3)[C@@H](c3ccccc3Cl)C2)c1 (single isomer, unassigned)
group.label: true
--
compound: CS(=O)(=O)c1cccc(N2CCN(C[C@H]3CCN(CC(F)(F)F)C3)[C@@H](c3ccccc3)C2)c1 (single isomer, unassigned)
group.label: false
--
compound: CC(C)[C@H]1CC[C@H](CN2CCN(c3ccc(CO)c(S(C)(=O)=O)c3)C[C@@H]2c2ccccc2)CC1 (single isomer, unassigned)
group.label: true
--
compound: CC1(C)CCC(O)(CN2CCN(c3cccc(S(C)(=O)=O)c3)C[C@H]2c2ccccc2)CC1
group.label: false
--
compound: CS(=O)(=O)c1cccc(N2CCN(C[C@H]3CC[C@]4(CC3)CC4(F)F)[C@H](c3ccccc3)C2)c1
group.label: false
